- System: A549
- assay-protocol: NCI tumour cell line growth inhibition, 48 h
Calls of active or inactive are those of the source. Rule as the data show it: active = GI50 up to about 1.1 µM and inactive = higher.
API: response.call in class 1 for active, class 0 for inactive

Previously resolved entries follow.
Asked: What did the test return for CC1[C@@H]2CC=C3C4CCC5Cc6nc7c(nc6C[C@@]5(C)C4CC(=O)[C@]32CO[C@@]1(O)C(O)CC(C)(C)O)CC1CCC2C3=C[C@H]4O[C@@]5(O[C@@](C)(CO)C[C@@H]5O)C(C)[C@@]4(O)[C@]3(C)[C@@H](O)CC2[C@]1(C)C7 (some centres not stated) ?
Given back: class 1

Asked: What did the test return for CC(C(=O)n1c2ccccc2c2ccccc21)N(c1ccccc1)c1ccccc1 (configuration not stated) ?
Given back: class 0

Asked: What did the test return for `Clc1ccc(-c2nnc(-c3nsc4ccccc34)o2)cc1` ?
Given back: class 0

Asked: What did the test return for `O=C(CSc1nc2ccc(I)cc2c(=O)n1Cc1ccccc1)NN1C(=O)CCC1=O` ?
Given back: class 0

Asked: What did the test return for COc1ccc(C(OCC2OC3(COC(c4ccccc4)(c4ccc(OC)cc4)c4ccc(OC)cc4)C(Oc4nc(=O)ccn43)C2O)(c2ccccc2)c2ccc(OC)cc2)cc1 (configuration not stated) ?
Given back: class 0

Asked: What did the test return for `CC(C)(C)c1ccc(OC(=O)Nc2ccc(O)c(C(=O)O)c2)cc1` ?
Given back: class 0

Shifting focus to the molecule that follows.
Asked: What did the test return for CCCCC(C)C(OC(=O)CC(CC(=O)O)C(=O)O)C(CC(C)CC(O)CCCCC(O)CC(O)C(C)N)OC(=O)CC(CC(=O)O)C(=O)O (configuration not stated) ?
Given back: class 0

###

- Test system: MCF7
- assay-protocol: NCI tumour cell line growth inhibition, 48 h
The source made the active and inactive calls. Cut-off read from the data, not from the text of the source: active = GI50 up to about 1.1 µM and inactive = higher.
Below, each of the molecules is paired with its reported GI50 value.

Known results for molecules:
Asked: Return reported GI50; argument: CC(=O)N1c2ccccc2C23CCN4CC5=CCOC(O)C(C5CC42)C13 (centres undefined)
Given back: > 100 µM (inactive)

Asked: Return reported GI50; argument: `O=C(CSc1nc2ccc(I)cc2c(=O)n1Cc1ccccc1)NN1C(=O)CCC1=O`
Given back: 41.5 µM (inactive)

Asked: Return reported GI50; argument: CCSC(=O)/C=C1\CN(C(=O)OC(C)(C)C)C1C(=O)OC(C)(C)C (centres undefined)
Given back: 2.38 µM (inactive)

Next:
Asked: Return reported GI50; argument: `COc1ccc2nc3n(c2c1)C(=O)c1ccccc1-3`
Given back: > 100 µM (inactive)

###

- Tested on: MOLT-4
- assay-protocol: NCI tumour cell line growth inhibition, 48 h
Activity calls are given as the source filed them. No stated cut-off is given here; in the data, active = GI50 up to about 1.1 µM and inactive = higher.
API: response.call in y = active, n = inactive

Previously resolved entries follow.
Asked: What did the test return for COC1CC(NC(=O)C(F)(F)F)C(OC(C)=O)C(C)O1 (stereo unspecified) ?
Given back: n

Asked: What did the test return for `COc1cccc(Nc2n[nH]c(NS(=O)(=O)c3cc(C)c(Cl)cc3S)n2)c1` ?
Given back: n

Asked: What did the test return for `O=C1C=C(c2c(O)ccc3ccccc23)c2cc(O)ccc2C1=O` ?
Given back: n

Asked: What did the test return for CC(C(=O)n1c2ccccc2c2ccccc21)N(c1ccccc1)c1ccccc1 (stereo unspecified) ?
Given back: n

Asked: What did the test return for CC1=NN(C(=O)CC(=O)N(C(=O)c2ccccc2)c2ccc(Cl)cc2)C(=O)C1/N=N/c1ccc([N+](=O)[O-])cc1 (stereo unspecified) ?
Given back: n

Asked: What did the test return for `Cc1ccc2c(O)cc(-c3ccc(Cl)s3)nc2n1` ?
Given back: y

Asked: What did the test return for `COc1ccc(-c2c(N)n(-c3nc4ccccc4s3)c(=O)c3cc([N+](=O)[O-])ccc23)cc1` ?
Given back: n

Asked: What did the test return for `Cc1c(C(=O)C(=O)c2ccccc2)c(C)c(C(=O)C(=O)c2ccccc2)c(C)c1C(=O)C(=O)c1ccccc1` ?
Given back: n

Shifting focus to the compound that follows.
Asked: What did the test return for O=[N+]([O-])c1ccc(C2=NOC(c3ccc(Cl)cc3)N2C23CC4CC(CC(C4)C2)C3)cc1 (stereo unspecified) ?
Given back: n

###

- System: NCI-H226
- assay-protocol: NCI tumour cell line growth inhibition, 48 h
The source made the active and inactive calls. No stated cut-off is given here; in the data, active = GI50 up to about 1.1 µM and inactive = higher.
experimental-readout: GI50

Known results for compounds:
Asked: Return reported GI50; argument: CCOC(=O)CCC(NC(=O)c1ccc(CNc2nc3cc(N)cc(N)c3nc2-c2ccccc2)cc1)C(=O)OCC (centres undefined)
Given back: > 100 µM (inactive)

Asked: Return reported GI50; argument: `O=c1[nH]c2cccccc-2c1-c1nc2ccccc2[nH]1`
Given back: 11.1 µM (inactive)

Asked: Return reported GI50; argument: `COc1ccc(C(=O)/C=C/c2ccc(OCCCCCCCCCCOc3ccc(/C=C/C(=O)c4ccc(OC)c(OC)c4)cc3)cc2)c(OC)c1`
Given back: > 100 µM (inactive)

Asked: Return reported GI50; argument: COC(=O)C1CC2C=CC1N(C(=O)OCc1ccccc1)C2 (centres undefined)
Given back: > 100 µM (inactive)

Asked: Return reported GI50; argument: Cc1ccc(C)c(N2C(=O)C(=O)C(c3nc4ccccc4o3)/C(=N/N)C2=O)c1 (centres undefined)
Given back: > 100 µM (inactive)

Please find the next compound below.
Asked: Return reported GI50; argument: `C/C(CC(=O)Nc1cccc([N+](=O)[O-])c1)=N/NC(N)=S`
Given back: > 100 µM (inactive)

###

- Tested on: Malme-3M
- assay-protocol: NCI tumour cell line growth inhibition, 48 h
Active and inactive are the calls of the source. No stated cut-off is given here; in the data, active = GI50 up to about 1.1 µM and inactive = higher. Where a SMILES comes first, the peptide text is derived from it. [ ]: non-standard residue; d: D form. The star is where a group is joined. Phe(4-NO2) = N[CH](Cc1ccc([N+](=O)[O-])cc1)C(=O)O; Cbz = O=C(OCc1ccccc1)*
API: response.call in active, inactive

Asked: What did the test return for `COC(=O)C1=C(C(=O)OC)N(C(C)C)[C@H]2C(C(=O)OC)=C(C(=O)OC)N(C(C)C)[C@@H]12` ?
Given back: inactive

Asked: What did the test return for `C=C1C(=O)O[C@H]2C[C@@]3(C)[C@H](O)CCC(=C)[C@@H]3[C@@H](OC(C)=O)[C@H]12` ?
Given back: inactive

Asked: What did the test return for CCOC(=O)CCC(NC(=O)OCc1ccccc1)C(=O)NC(CCC(=O)OCC)C(=O)NC(Cc1ccc([N+](=O)[O-])cc1)C(=O)NC(CCC(=O)OCC)C(=O)NC(CCC(=O)OCC)C(=O)OCC (stereo unspecified) (Cbz-E(OEt)E(OEt)[Phe(4-NO2)]E(OEt)E(OEt)-OEt; configuration not given here) ?
Given back: inactive

Next:
Asked: What did the test return for `O=C(O)c1cc(-c2ccc3cc4c(cc3c2)OCO4)nc2ccccc12` ?
Given back: inactive

Asked: What did the test return for `CCOC(=O)c1sc(N)nc1N1CCCC1` ?
Given back: inactive

Asked: What did the test return for CCC1(OC(=O)CN)C(=O)OCc2c1cc1n(c2=O)Cc2cc3ccccc3nc2-1 (stereo unspecified) ?
Given back: active

###

- Test system: SF-268
- assay-protocol: NCI tumour cell line growth inhibition, 48 h
The source made the active and inactive calls. No stated cut-off is given here; in the data, active = GI50 up to about 1.1 µM and inactive = higher.
experimental-readout: GI50

Known results for compounds:
Asked: Record lookup: for SF-268, what GI50 belongs to `Oc1cccc2cc(Cl)cnc12` ?
Given back: 3.85 µM (inactive)

Asked: Record lookup: for SF-268, what GI50 belongs to `COC(=O)c1sc2ncc3c(c2c1N)CCCCCC3` ?
Given back: > 100 µM (inactive)

Asked: Record lookup: for SF-268, what GI50 belongs to `Cc1cc2c(cc1C)[n+]([O-])c(-c1c(Cl)cccc1Cl)c(N)[n+]2[O-]` ?
Given back: 32.9 µM (inactive)

Next:
Asked: Record lookup: for SF-268, what GI50 belongs to `NS(=O)(=O)c1cc2c(cc1Cl)NC(C(=O)c1cc(=O)c3ccc(O)cc3o1)=NS2(=O)=O` ?
Given back: > 100 µM (inactive)

Asked: Record lookup: for SF-268, what GI50 belongs to CN1CCc2cc3c(c4c2C1C(O)c1ccccc1-4)OCO3 (stereo unspecified) ?
Given back: 6.3 µM (inactive)

Asked: Record lookup: for SF-268, what GI50 belongs to O=C(O)C12C=CC(C1)c1ccccc12 (stereo unspecified) ?
Given back: > 100 µM (inactive)

###

- System: RXF 631
- assay-protocol: NCI tumour cell line growth inhibition, 48 h
The source made the active and inactive calls. No stated cut-off is given here; in the data, active = GI50 up to about 1.1 µM and inactive = higher.
experimental-readout: GI50

Known results for compounds:
Asked: Return reported GI50; argument: C=CCN(N=O)C(=O)NCCCC(NC(C)=O)C(=O)NCc1ccccc1 (stereo not given)
Given back: > 100 µM (inactive)

Asked: Return reported GI50; argument: `CCOc1ccccc1N1C(=O)C(=O)C(c2nc3ccccc3o2)C(=O)C1=O`
Given back: > 100 µM (inactive)

Asked: Return reported GI50; argument: COC(=O)C(Cc1nc2ccc(Cl)cc2nc1O)C(=O)C(=O)Nc1cc(C)ccc1C (stereo not given)
Given back: > 100 µM (inactive)

Asked: Return reported GI50; argument: C=C1C(=O)C23C(O)CC4C(C)(C)CCC(O)C4(C)C2CC(OC(C)=O)C1[C@H]3O (stereo not given in full)
Given back: 4.8 µM (inactive)

Please find the next compound below.
Asked: Return reported GI50; argument: `Cn1ncc2cc3c(Nc4ccc(Cl)cc4)cccc3nc21`
Given back: 17.7 µM (inactive)
